# target.or.system: Aβ (Homo sapiens)
# Construct: purchased Sigma; Bachem (results also replicated with peptide from the Keck Laboratory, Yale); host or cells: chemical synthesis
# Sequence (P05067 672-711): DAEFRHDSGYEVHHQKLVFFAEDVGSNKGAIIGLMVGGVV
# assay: G50 gel filtration chromatography of Aβ in presence of metal ions or EDTA
# test.parameters: metal ion 25 μM
# maps each entry to its total Zn^2+ concentration with similar or comparable effect on Aβ chromatography
observable: total Zn^2+ concentration with similar or comparable effect on Aβ chromatography

{"columns": ["record.smiles", "readout.value"],
 "data": [
  ["[Al+3]", "~3 µM"],
  ["[Fe+2]", "~10 µM"],
  ["[Co+2]", "~10 µM"],
  ["[Pb+2]", "~0.4 µM"],
  ["[Ni+2]", "~10 µM"]
]}

Attribution: patent US6890727B2
